Target: T1, hBCMA (human BCMA) (Homo sapiens, UniProt Q02223)
T1 sequence (Q02223 1-184): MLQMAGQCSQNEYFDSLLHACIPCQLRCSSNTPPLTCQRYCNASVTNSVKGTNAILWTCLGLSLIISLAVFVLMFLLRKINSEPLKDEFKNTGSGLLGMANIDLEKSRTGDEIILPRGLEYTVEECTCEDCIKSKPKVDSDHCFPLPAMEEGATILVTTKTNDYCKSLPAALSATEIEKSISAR
Test: Kinetics and affinity of hBCMA/human IgG interactions by SPR (Bio-Rad Proteon XPR36)
Type: binding
Details: human BCMA, 37° C.

molecule: COMBO_Rd4_0.6 nM_C19: anti-BCMA antibody (antibody, V domains shown) VH: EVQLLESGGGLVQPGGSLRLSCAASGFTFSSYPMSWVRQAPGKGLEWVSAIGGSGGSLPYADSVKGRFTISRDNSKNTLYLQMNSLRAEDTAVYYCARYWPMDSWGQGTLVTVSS VL: EIVLTQSPGTLSLSPGERATLSCRASQSVSAVYLAWYQQKPGQAPRLLMYDASIRATGIPDRFSGSGSGTDFTLTISRLEPEDFAVYYCQQYRAWPLTFGQGTKVEIK
unit.annotation: M⁻¹ s⁻¹
ka Human: 7.86e+06

molecule: A02_Rd4_0.6 nM_C13: anti-BCMA antibody (antibody, V domains shown) VH: EVQLLESGGGLVQPGGSLRLSCAASGFTFSSYAMNWVRQAPGKGLEWVSAISDSGGYRYYADSVKGRFTISRDNSKNTLYLQMNSLRAEDTAVYYCARYWPMSLWGQGTLVTVSS VL: EIVLTQSPGTLSLSPGERATLSCRASQSVSSSYWAWYQQKPGQAPRLLMYDASIRATGIPDRFSGSGSGTDFTLTISRLEPEDFAVYYCQQYESWPLTFGQGTKVEIK
unit.annotation: M⁻¹ s⁻¹
ka Human: 8.53e+06

molecule: A02_Rd4_6 nM_C26: anti-BCMA antibody (antibody, V domains shown) VH: EVQLLESGGGLVQPGGSLRLSCAASGFTFSSYAMNWVRQAPGKGLEWVSAISDSGGSTYYADSVKGRFTISRDNSKNTLYLQMNSLRAEDTAVYYCARYWPMSLWGQGTLVTVSS VL: EIVLTQSPGTLSLSPGERATLSCRASQSVSSLYLAWYQQKPGQAPRLLMYDASIRATGIPDRFSGSGSGTDFTLTISRLEPEDFAVYYCQQYQVWPLTFGQGTKVEIK
unit.annotation: M⁻¹ s⁻¹
ka Human: 4.26e+06

molecule: A02_Rd4_6 nM_C03: anti-BCMA antibody (antibody, V domains shown) VH: EVQLLESGGGLVQPGGSLRLSCAASGFTFSSYAMNWVRQAPGKGLEWVSAISDSGGSTYYADSVKGRFTISRDNSKNTLYLQMNSLRAEDTAVYYCARYWPMDIWGQGTLVTVSS VL: EIVLTQSPGTLSLSPGERATLSCRASQSVSNLYLAWYQQKPGQAPRLLMYDASIRATGIPDRFSGSGSGTDFTLTISRLEPEDFAVYYCQQYQGWPLTFGQGTKVEIK
unit.annotation: M⁻¹ s⁻¹
ka Human: 1.69e+06

molecule: COMBO_Rd4_6 nM_C02: anti-BCMA antibody (antibody, V domains shown) VH: EVQLLESGGGLVQPGGSLRLSCAASGFTFSSYAMNWVRQAPGKGLEWVSAISDSGGFVYYADSVKGRFTISRDNSKNTLYLQMNSLRAEDTAVYYCARYWPMDSWGQGTLVTVSS VL: EIVLTQSPGTLSLSPGERATLSCRASQSVSSSYLAWYQQKPGQAPRLLMYDASIRATGIPDRFSGSGSGTDFTLTISRLEPEDFAVYYCQQYEFWPLTFGQGTKVEIK
unit.annotation: M⁻¹ s⁻¹
ka Human: 1.05e+06

molecule: C01_Rd4_6 nM_C04: anti-BCMA antibody (antibody, V domains shown) VH: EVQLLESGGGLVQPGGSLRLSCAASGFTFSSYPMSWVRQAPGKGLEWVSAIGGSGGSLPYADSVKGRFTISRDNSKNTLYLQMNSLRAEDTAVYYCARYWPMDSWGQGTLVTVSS VL: EIVLTQSPGTLSLSPGERATLSCCSSQSVSSTYLAWYQQKPGQAPRLLIYDASSRAPGIPDRFSGSGSGTDFTLTISRLEPEDFAVYYCQQYSAFPLTFGQGTKVEIK
unit.annotation: M⁻¹ s⁻¹
ka Human: 2.33e+07

molecule: C01_Rd4_6 nM_C10: anti-BCMA antibody (antibody, V domains shown) VH: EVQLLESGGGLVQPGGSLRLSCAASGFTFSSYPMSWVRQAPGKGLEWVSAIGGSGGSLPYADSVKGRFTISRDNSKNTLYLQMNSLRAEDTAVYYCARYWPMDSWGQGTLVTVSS VL: EIVLTQSPGTLSLSPGERATLSCRASQSVSSVYLAWYQQKPGQAPRLLIYDASSRAPGIPDRFSGSGSGTDFTLTISRLEPEDFAVYYCQQYSTWPLTFGQGTKVEIK
unit.annotation: M⁻¹ s⁻¹
ka Human: 1.31e+07

molecule: COMBO_Rd4_6 nM_C07: anti-BCMA antibody (antibody, V domains shown) VH: EVQLLESGGGLVQPGGSLRLSCAASGFTFSSYPMSWVRQAPGKGLEWVSAIGGSGGSLPYADSVKGRFTISRDNSKNTLYLQMNSLRAEDTAVYYCARYWPMADWGQGTLVTVSS VL: EIVLTQSPGTLSLSPGERATLSCRASQPISSSYLAWYQQKPGQAPRLLMYDASIRATGIPDRFSGSGSGTDFTLTISRLEPEDFAVYYCQQYQGWPLTFGQGTKVEIK
unit.annotation: M⁻¹ s⁻¹
ka Human: 1.05e+07

molecule: COMBO_Rd4_0.6 nM_C17: anti-BCMA antibody (antibody, V domains shown) VH: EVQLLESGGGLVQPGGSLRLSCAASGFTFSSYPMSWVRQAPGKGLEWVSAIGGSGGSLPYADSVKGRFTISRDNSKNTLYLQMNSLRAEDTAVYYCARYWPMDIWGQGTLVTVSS VL: EIVLTQSPGTLSLSPGERATLSCRASQGISSTYLAWYQQKPGQAPRLLMYDASIRATGIPDRFSGSGSGTDFTLTISRLEPEDFAVYYCQQYAYWPLTFGQGTKVEIK
unit.annotation: M⁻¹ s⁻¹
ka Human: 8.68e+06
